# System: GFP-9S motif 4 KD (synthetic construct)
# experiment-description: HRP pulldown
# settings: lysate; HRP: 50 mM Tris pH 8, 150 mM NaCl, 1 mM bME, 50 ug/ml BSA, 3 ug/ml yeast RNA, 0.5% heparin, 2 nM RNA; ITC (25 C) and FP: Tris pH 8, 200 mM KCl, 5% glycerol …
quantity-kind: Kd (µM)
Reply numerically in µM, unit not repeated.

Please give the documented Kd of AUUACACGUGA [Cy5-rpoA]
0.189

FYI, the data here is from paper PMC8809517.
